target: CYP1A2 (Homo sapiens, UniProt P05177); experiment: In vitro side effect profiling: CYP1A2; assay type: in vitro ADME; conditions: duplicate, read-out: inhibition on cytochrome p450 CYP1A2
Sequence (P05177 whole entry): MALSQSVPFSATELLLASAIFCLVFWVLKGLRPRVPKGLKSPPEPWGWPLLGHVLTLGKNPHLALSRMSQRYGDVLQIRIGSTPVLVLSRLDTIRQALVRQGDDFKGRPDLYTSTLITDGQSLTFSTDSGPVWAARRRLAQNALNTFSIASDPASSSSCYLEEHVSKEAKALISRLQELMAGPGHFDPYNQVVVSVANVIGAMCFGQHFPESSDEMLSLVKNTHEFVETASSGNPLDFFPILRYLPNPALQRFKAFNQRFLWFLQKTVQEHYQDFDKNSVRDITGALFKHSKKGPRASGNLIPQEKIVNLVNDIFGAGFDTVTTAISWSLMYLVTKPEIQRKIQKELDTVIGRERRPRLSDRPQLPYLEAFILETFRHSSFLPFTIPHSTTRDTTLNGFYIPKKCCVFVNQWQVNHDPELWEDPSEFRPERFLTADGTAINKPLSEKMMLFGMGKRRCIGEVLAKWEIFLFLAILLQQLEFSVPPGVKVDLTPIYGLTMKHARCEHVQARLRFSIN
parameterMeasured: inhibition at 10 µM (%)
Report only the number, with the unit % understood.

*Q* Suppose we examine the molecule Cc1ccccc1CSc1ccc(-c2ccccn2)nn1 ; what inhibition at 10 µM value has been reported?
*A* 69

====

system: EAAT2; assay: EAAT2 protein levels in PA-EAAT2 cells by Western blot; format: cell-based, human; conditions: compound 10 μM, 4 h incubation, PA-EAAT2 cells, relative to DMSO controls; na = not active
parameterMeasured: Fold increase for EAAT2, 4 h (fold)
Report only the number, with the unit fold understood.

Examples with their reported Fold increase for EAAT2, 4 h follow.
- compound: "Cc1ccccc1CCSc1ccc(-c2ccccn2)nn1 [Compound 7-32]"
  Fold increase for EAAT2, 4 h / fold: 1.2
- compound: "CC(Oc1ccc(-c2ccccn2)nn1)c1c(F)cccc1Cl (racemic) [Compound 8-4]"
  Fold increase for EAAT2, 4 h / fold: 1.6
- compound: "Fc1ccc(Sc2ccc(-c3ccccn3)nn2)c(Cl)c1 [Compound 7-34]"
  Fold increase for EAAT2, 4 h / fold: 1.3
- compound: "Clc1ccccc1CSc1ccc(-c2ccccn2)nn1 [Compound 7-7]"
  Fold increase for EAAT2, 4 h / fold: 2.1
- compound: "Cc1ccc(CSc2ccc(-c3ccncc3)nn2)cc1 [Compound 7-11]"
  Fold increase for EAAT2, 4 h / fold: 1.3

*Q* Suppose we examine the compound c1ccc(CSc2ccc(-c3ccccn3)cc2)cc1 [Compound 19] ; what Fold increase for EAAT2, 4 h value has been reported?
*A* 1.2

*Q* Suppose we examine the compound Cc1ccccc1CSc1ccc(-c2ccccc2)nn1 [Compound 7-6] ; what Fold increase for EAAT2, 4 h value has been reported?
*A* 1.1
